system: 885512-296-R-J2-PDC complex spheroid viability; experiment: Anticancer human tumor 885512-296-R-J2-PDC patient-derived breast carcinoma cell line growth inhibition [GQUAD]; details: curve of first compound; second compound 10 µM
Reported values of IC50 for individual entries

Here is how some compounds turned out for IC50.
compound="CC1COCCN1c1cc(C2(S(C)(=N)=O)CC2)nc(-c2ccnc3[nH]ccc23)n1 (stereo not drawn) + CN(C)c1ccc(Nc2c3ccc(NC(=O)CCN4CCCC4)cc3nc3cc(NC(=O)CCN4CCCC4)ccc23)cc1" observed_measurement="< 31.6 nM"
compound="CC[C@@]1(O)C(=O)OCc2c1cc1n(c2=O)Cc2cc3c(CN(C)C)c(O)ccc3nc2-1 + Cc1[nH]c2ccc(F)cc2c1-c1nc2c3cccnc3c3ncccc3c2[nH]1" observed_measurement="< 0.999 nM"

Reported IC50 of Cc1cccc(N(C)C(=O)C2C(O)CCN2c2nc(C)cc(C(F)(F)F)c2C#N)c1 (stereo not drawn) + Cc1[nH]c2ccc(F)cc2c1-c1nc2c3cccnc3c3ncccc3c2[nH]1 : < 31.6 nM

---

system: 885512-296-R-J2-PDC complex spheroid viability; assay: Anticancer human tumor 885512-296-R-J2-PDC cell line growth inhibition [GQUAD]; conditions: second compound 0.0316 µM; first compound 0.0316 µM; stronger effect = lower value;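 further: spheroids exposed to the compounds for one week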;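 on viability, T/C: percent of tumor spheroid viability relative to DMSO vehicle control wells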
observable: viability, T/C (%)
Dear colleague, please return just the value in %, with no unit written.

Here is how some compounds turned out for viability, T/C.
compound="Cc1cccc(N(C)C(=O)C2C(O)CCN2c2nc(C)cc(C(F)(F)F)c2C#N)c1 (stereo not given) + Cc1[nH]c2ccc(F)cc2c1-c1nc2c3cccnc3c3ncccc3c2[nH]1" readout_units=% observed_measurement=101
compound="O=c1[nH]cc(F)c(=O)[nH]1 + Cc1[nH]c2ccc(F)cc2c1-c1nc2c3cccnc3c3ncccc3c2[nH]1" readout_units=% observed_measurement=98.3
compound="COc1cccc2c1C(=O)c1c(O)c3c(c(O)c1C2=O)CC(O)(C(=O)CO)CC3OC1CC(N)C(O)C(C)O1 (stereo not given) + CN(C)c1ccc(Nc2c3ccc(NC(=O)CCN4CCCC4)cc3nc3cc(NC(=O)CCN4CCCC4)ccc23)cc1" readout_units=% observed_measurement=83.5
compound="COc1cc(C2c3cc4c(cc3C(OC3OC5COC(C)OC5C(O)C3O)C3COC(=O)C23)OCO4)cc(OC)c1O (stereo not given) + CN(C)c1ccc(Nc2c3ccc(NC(=O)CCN4CCCC4)cc3nc3cc(NC(=O)CCN4CCCC4)ccc23)cc1" readout_units=% observed_measurement=106

Item: CC1COCCN1c1cc(C2(S(C)(=N)=O)CC2)nc(-c2ccnc3[nH]ccc23)n1 (stereo not given) + CN(C)c1ccc(Nc2c3ccc(NC(=O)CCN4CCCC4)cc3nc3cc(NC(=O)CCN4CCCC4)ccc23)cc1 | System: 885512-296-R-J2-PDC complex spheroid viability | viability, T/C: 102

---

system: 885512-296-R-J2-PDC complex spheroid viability; assay: Anticancer human tumor 885512-296-R-J2-PDC cell line growth inhibition [GQUAD]; details: second compound 3.16 µM; first compound 10 µM; stronger effect = lower value;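 further: spheroids exposed to the compounds for one week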;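 on viability, T/C: percent of tumor spheroid viability relative to DMSO vehicle control wells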
Checkbox rule: viability, T/C lower than 5% = MET; viability, T/C not lower than 5% = NOT MET.

compound="COc1cccc2c1C(=O)c1c(O)c3c(c(O)c1C2=O)CC(O)(C(=O)CO)CC3OC1CC(N)C(O)C(C)O1 (stereo not drawn) + Cc1[nH]c2ccc(F)cc2c1-c1nc2c3cccnc3c3ncccc3c2[nH]1" tgt="885512-296-R-J2-PDC complex spheroid viability" qualitative_label=MET

## Task Below 5% on viability, T/C? Entry COc1ccc([C@@H](O)c2cc(-c3ncnc4cc(N5CCOCC5)ccc34)c(F)cc2Cl)nn1 + CN(C)c1ccc(Nc2c3ccc(NC(=O)CCN4CCCC4)cc3nc3cc(NC(=O)CCN4CCCC4)ccc23)cc1
## Result NOT MET

## Task Below 5% on viability, T/C? Entry CC1COCCN1c1cc(C2(S(C)(=N)=O)CC2)nc(-c2ccnc3[nH]ccc23)n1 (stereo not drawn) + CN(C)c1ccc(Nc2c3ccc(NC(=O)CCN4CCCC4)cc3nc3cc(NC(=O)CCN4CCCC4)ccc23)cc1
## Result MET

## Task Below 5% on viability, T/C? Entry COc1ccc([C@@H](O)c2cc(-c3ncnc4cc(N5CCOCC5)ccc34)c(F)cc2Cl)nn1 + Cc1[nH]c2ccc(F)cc2c1-c1nc2c3cccnc3c3ncccc3c2[nH]1
## Result MET

## Task Below 5% on viability, T/C? Entry COc1ncnc(C2CC2)c1-c1ncc2cnn(Cc3ccc(-c4nc(C(F)(F)F)cn4C(C)C)cc3)c2n1 + Cc1cnc(CNC(=O)c2c(=O)c3ccc(N4CCCN(C)CC4)nc3n3c2sc2ccccc23)cn1
## Result NOT MET

## Task Below 5% on viability, T/C? Entry Nc1ccn(C2OC(CO)C(O)C2(F)F)c(=O)n1 (stereo not drawn) + CN(C)c1ccc(Nc2c3ccc(NC(=O)CCN4CCCC4)cc3nc3cc(NC(=O)CCN4CCCC4)ccc23)cc1
## Result MET

## Task Below 5% on viability, T/C? Entry C=CCn1c(=O)c2cnc(Nc3ccc(N4CCN(C)CC4)cc3)nc2n1-c1cccc(C(C)(C)O)n1 + Cc1cnc(CNC(=O)c2c(=O)c3ccc(N4CCCN(C)CC4)nc3n3c2sc2ccccc23)cn1
## Result MET
